Data provenance is patent US20240190986A1.

Form field: ELISA (OD450) (one value per entry).
# experimental_system: T1, MD50 protein
# T1 construct: range 487-580; also called proximal membrane fragment of mesothelin
# T1 sequence (Q13421 495-588): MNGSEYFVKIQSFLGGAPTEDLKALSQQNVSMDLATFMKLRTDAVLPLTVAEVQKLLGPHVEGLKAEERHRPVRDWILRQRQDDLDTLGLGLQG
# measurement_protocol: ELISA, antigen coated, TG1 supernatant; further: test concentration or dose not given here
Give the value, in units of OD450, as a plain number.

Known results for binders:
1. M137 (VHH, Nanoantibody in TG1 supernatant in the screening ELISA; also called clone M137) VHH: QVQLVESGGGLVQAGGSLSLSCAASGSLSSINAMGWYRQLPEMRQLVATMGSDGKTYYADSVKGRFTISRDYAKYTVSLQMNNLRPEDTAIYYCAADRFGAPIHDVDYWGKGTLVTVSV    2.09
2. M210 (VHH, Nanoantibody in TG1 supernatant in the screening ELISA; also called clone M210) VHH: QVQLVESGGGLVQPGGSLRLSCAASGITLDNYAIAWFRQAPGKKREGVSCISSNGNTYYQPSVKGRFTIARDNAKNTVYLHMNNLNPEDTAVYYCQVGQFSSSTTPVQAMSVMSLYADWGQGTQVTVSS    0.823
3. M050 (VHH, Nanoantibody in TG1 supernatant in the screening ELISA; also called clone M050) VHH: EVQLQESGGGLVQAGGSLRLSCAASGAVSSINAMGWYRQTPEKVRKLVATMGSGGNTYYADSVKGRFTISRDYAKNTVALQMNNLIPEDTAVYYCAADKFGADIHEVDYWGKGTLVTVSS    0.512

Read the next record carefully.
Query string: Dear colleague, I am looking for the recorded ELISA (OD450) of the following binder: M010 (VHH, Nanoantibody in TG1 supernatant in the screening ELISA; also called clone M010) VHH: QVQLVESGGGLVQAGGSLRLSCAASGSVSSINAMGWYRQGTGEVRKLVATMGSGGNTYYADSVKGRFFITRDYSKNTVSLQMNNLTPEDSATYYCAADRFGASIHEVDYWGKGTLVTVSS
Result string: 2.09
